Exercise: for every item that follows, state its recorded log10 Ki.
Biological target: CCKB receptor (Mus musculus, UniProt P56481)
Construct: The whole brains from male mice (CD1 22-25 g; Charles River) were removed; from tissue; host or cells: cerebral cortex membranes of male CD1 mice
Sequence (P56481 whole entry): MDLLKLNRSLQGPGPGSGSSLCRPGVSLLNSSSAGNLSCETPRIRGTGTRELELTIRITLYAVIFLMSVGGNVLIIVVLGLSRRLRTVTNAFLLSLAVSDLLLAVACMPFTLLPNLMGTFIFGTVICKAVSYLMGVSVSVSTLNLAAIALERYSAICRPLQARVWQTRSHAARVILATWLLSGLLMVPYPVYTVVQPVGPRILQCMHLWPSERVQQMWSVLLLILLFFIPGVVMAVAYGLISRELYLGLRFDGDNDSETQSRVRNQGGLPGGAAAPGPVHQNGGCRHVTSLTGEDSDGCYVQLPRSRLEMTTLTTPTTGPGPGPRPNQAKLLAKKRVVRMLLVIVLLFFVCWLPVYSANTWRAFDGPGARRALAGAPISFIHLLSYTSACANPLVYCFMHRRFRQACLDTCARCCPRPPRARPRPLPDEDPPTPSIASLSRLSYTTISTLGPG
Assay: CCKB receptor radioligand binding assay in mouse cortical membranes
Details: [125I]-CCK8(S) 200 pM, 150 min at 21±3°, read-out: CCKB pKi (converted)
Hello, just confirming the data are log10 of Ki with units of nM.

Would you kindly share the measured log10 Ki for O=C(O)c1cccc(NC(=O)c2nc(-c3cccc(F)c3)[nH]c2CCC23CC4CC(CC(C4)C2)C3)c1 [Example 55] ?
2.81

Would you kindly share the measured log10 Ki for Cc1ccccc1-c1nc(C(=O)Nc2cccc(C(=O)NS(=O)(=O)c3ccccc3)c2)c(CCC23CC4CC(CC(C4)C2)C3)[nH]1 [Example 101] ?
2.57

Would you kindly share the measured log10 Ki for Cc1ccccc1-c1nc(C(=O)NCC(=O)Nc2cccc(C(=O)O)c2)c(CCC23CC4CC(CC(C4)C2)C3)[nH]1 [Example 103] ?
2.42

Would you kindly share the measured log10 Ki for CCCCC(CC)c1nc(C(=O)Nc2cccc(C(=O)O)c2)c(CCC23CC4CC(CC(C4)C2)C3)[nH]1 (centres unmarked) [Example 124] ?
1.80

Would you kindly share the measured log10 Ki for Cc1ccccc1-c1nc(C(=O)Nc2ccc(CC(=O)O)cc2)c(CCC23CC4CC(CC(C4)C2)C3)[nH]1 [Example 99] ?
2.27

Would you kindly share the measured log10 Ki for Cc1ccc(NC(=O)c2nc(-c3ccc(F)cc3F)[nH]c2CCC23CC4CC(CC(C4)C2)C3)cc1C(=O)O [Example 152] ?
1.02

Would you kindly share the measured log10 Ki for Cc1ccccc1-c1nc(C(=O)Nc2cccc(C(=O)O)c2)c(CCC23CC4CC(CC(C4)C2)C3)[nH]1 [Example 57] ?
2.08

Would you kindly share the measured log10 Ki for Cc1cc(C)c(-c2nc(C(=O)Nc3cccc(C(=O)O)c3)c(CCC34CC5CC(CC(C5)C3)C4)[nH]2)c(C)c1 [Example 154] ?
1.39

Would you kindly share the measured log10 Ki for Cc1ccccc1-c1nc(C(=O)Nc2ccc(C)c(C(=O)O)c2C)c(CCC23CC4CC(CC(C4)C2)C3)[nH]1 [Example 240] ?
1.42

Would you kindly share the measured log10 Ki for O=C(O)c1cccc(NC(=O)c2nc(-c3ccc(F)cc3F)[nH]c2CCC23CC4CC(CC(C4)C2)C3)c1 [Example 60] ?
2.15

Would you kindly share the measured log10 Ki for Cc1ccccc1-c1nc(C(=O)Nc2ccc(F)c(C(=O)O)c2)c(CCC23CC4CC(CC(C4)C2)C3)[nH]1 [Example 105] ?
1.67

Would you kindly share the measured log10 Ki for CC(C)CN1CCC[C@@H]1c1nc(C(=O)Nc2cccc(C(=O)O)c2)c(CCC23CC4CC(CC(C4)C2)C3)[nH]1 [Example 144] ?
2.64

Would you kindly share the measured log10 Ki for O=C(O)c1cccc(NC(=O)c2nc(-c3cccc4ccccc34)[nH]c2CCC23CC4CC(CC(C4)C2)C3)c1 [Example 145] ?
2.42

Would you kindly share the measured log10 Ki for COc1cccc(-c2nc(C(=O)Nc3cccc(C(=O)O)c3)c(CCC3CCCCCC3)[nH]2)c1 [Example 42] ?
3.18

Would you kindly share the measured log10 Ki for Cc1ccc(NC(=O)c2nc(-c3ccccc3C)n(C)c2CCC23CC4CC(CC(C4)C2)C3)cc1C(=O)O [Example 161] ?
1.59

Would you kindly share the measured log10 Ki for O=C(O)c1cccc(NC(=O)c2nc[nH]c2CCC23CC4CC(CC(C4)C2)C3)c1 [Example 77] ?
4.00

Would you kindly share the measured log10 Ki for O=C(O)c1cc(NC(=O)c2[nH]c(-c3ccccc3)nc2CC23CC4CC(CC(C4)C2)C3)cc(C(=O)O)c1 [Example 37] ?
2.32

Would you kindly share the measured log10 Ki for CC(C(=O)O)c1cccc(NC(=O)c2nc(C3CCCCC3)[nH]c2CCC23CC4CC(CC(C4)C2)C3)c1 (racemic) [Example 255] ?
0.15

Would you kindly share the measured log10 Ki for Cc1ccccc1-c1nc(C(=O)Nc2cccc(C(=O)O)c2)c(CCC(C)(C)C)[nH]1 [Example 91] ?
3.58

Would you kindly share the measured log10 Ki for O=C(O)c1cccc(NC(=O)c2nc(C3CCCCC3)[nH]c2CCC2CCCCCC2)c1 [Example 166] ?
2.13

Would you kindly share the measured log10 Ki for CC(C)c1nc(C(=O)Nc2cccc(C(=O)O)c2)c(CCC23CC4CC(CC(C4)C2)C3)[nH]1 [Example 78] ?
2.27

Would you kindly share the measured log10 Ki for Cc1ccc(NC(=O)c2nc(C3CCCCC3)[nH]c2CCC23CC4CC(CC(C4)C2)C3)cc1C(=O)O [Example 135] ?
0.79

Would you kindly share the measured log10 Ki for CN(C)c1ccc(-c2nc(C(=O)Nc3cccc(C(=O)O)c3)c(CCC34CC5CC(CC(C5)C3)C4)[nH]2)cc1 [Example 72] ?
2.47

Would you kindly share the measured log10 Ki for CCCC(CCC)c1nc(C(=O)Nc2ccc(C)c(C(=O)O)c2)c(CCC23CC4CC(CC(C4)C2)C3)[nH]1 [Example 126] ?
1.34

Would you kindly share the measured log10 Ki for O=C(O)Cc1cccc(NC(=O)c2nc(C3CCCCC3)[nH]c2CCC23CC4CC(CC(C4)C2)C3)c1 [Example 84] ?
0.01

Would you kindly share the measured log10 Ki for Cc1ccccc1-c1nc(C(=O)Nc2cccc(C(=O)O)c2)c(CCc2ccccc2)[nH]1 [Example 87] ?
3.43

Would you kindly share the measured log10 Ki for Cc1ccc(NC(=O)c2nc(C3CCC4CC3C4(C)C)[nH]c2CCC23CC4CC(CC(C4)C2)C3)cc1C(=O)O (centres unmarked) [Example 191] ?
1.46

Would you kindly share the measured log10 Ki for O=C(O)c1cccc(NC(=O)c2nc(C3CC4CCC3C4)[nH]c2CCC23CC4CC(CC(C4)C2)C3)c1 (racemic) [Example 115] ?
1.41

Would you kindly share the measured log10 Ki for Cc1ccc(NC(=O)c2nc(C3CCCO3)[nH]c2CCC23CC4CC(CC(C4)C2)C3)cc1C(=O)O (centres unmarked) [Example 188] ?
1.41
